Procedure text: wn = mass fraction of the nth substance listed
Assay conditions: 323.15 K; 101 kPa; Liquid; Concentric cylinders viscometry; w1 = 0.15
Measure: viscosity (mPa·s)

molecule="CC(O)CN(CC(C)O)CC(C)O (centres undefined) [triisopropanolamine] + O" observed_value=0.9361
molecule="CC(O)CN (centres undefined) [1-amino-2-propanol] + O" observed_value=0.8864
molecule="OCCNCCO [diethanolamine] + O" observed_value=0.8599
molecule="CC(O)CNCC(C)O (centres undefined) [N-(2-hydroxypropyl)-2-hydroxy-1-propanamine] + O" observed_value=0.9924

---

Procedure text: refractive index (Na D-line) (dimensionless); wn = mass fraction of the nth substance listed
Assay conditions: 328.15 K; 101 kPa; Liquid; Standard Abbe refractometry; w1 = 0.15
Measure: refractive index

molecule="OCCNCCO [diethanolamine] + O" observed_value=1.34935
molecule="CC(O)CN (centres undefined) [1-amino-2-propanol] + O" observed_value=1.34705
molecule="CC(O)CN(CC(C)O)CC(C)O (centres undefined) [triisopropanolamine] + O" observed_value=1.34999
molecule="CC(O)CNCC(C)O (centres undefined) [N-(2-hydroxypropyl)-2-hydroxy-1-propanamine] + O" observed_value=1.3494

---

Procedure text: wn = mass fraction of the nth substance listed
Assay conditions: 313.15 K; 101 kPa; Liquid; Concentric cylinders viscometry; w1 = 0.25
Measure: viscosity (mPa·s)

compound="OCCNCCO [diethanolamine] + O" measure=viscosity observed_value=1.585
compound="CC(O)CNCC(C)O (centres undefined) [N-(2-hydroxypropyl)-2-hydroxy-1-propanamine] + O" measure=viscosity observed_value=1.871
compound="CC(O)CN(CC(C)O)CC(C)O (centres undefined) [triisopropanolamine] + O" measure=viscosity observed_value=1.774
compound="CC(O)CN (centres undefined) [1-amino-2-propanol] + O" measure=viscosity observed_value=1.574

---

Procedure text: refractive index (Na D-line) (dimensionless); wn = mass fraction of the nth substance listed
Assay conditions: 318.15 K; 101 kPa; Liquid; Standard Abbe refractometry; w1 = 0.15
Measure: refractive index

compound="OCCNCCO [diethanolamine] + O" measure="refractive index" observed_value=1.35122
compound="CC(O)CNCC(C)O (centres undefined) [N-(2-hydroxypropyl)-2-hydroxy-1-propanamine] + O" measure="refractive index" observed_value=1.35149
compound="CC(O)CN (centres undefined) [1-amino-2-propanol] + O" measure="refractive index" observed_value=1.34908
compound="CC(O)CN(CC(C)O)CC(C)O (centres undefined) [triisopropanolamine] + O" measure="refractive index" observed_value=1.35209

---

Procedure text: refractive index (Na D-line) (dimensionless); wn = mass fraction of the nth substance listed
Assay conditions: 333.15 K; 101 kPa; Liquid; Standard Abbe refractometry; w1 = 0.1
Measure: refractive index

compound="CC(O)CN(CC(C)O)CC(C)O (centres undefined) [triisopropanolamine] + O" measure="refractive index" observed_value=1.34176
compound="CC(O)CN (centres undefined) [1-amino-2-propanol] + O" measure="refractive index" observed_value=1.33936
compound="OCCNCCO [diethanolamine] + O" measure="refractive index" observed_value=1.34044
compound="CC(O)CNCC(C)O (centres undefined) [N-(2-hydroxypropyl)-2-hydroxy-1-propanamine] + O" measure="refractive index" observed_value=1.34147

The origin of these recorded values is the NIST ThermoML archive (doi:10.1021/je300938w).
